- System: T1, polypeptide GC3pep (human)
- T1 construct: also called membrane proximal polypeptide GC3pep
- T1 peptide: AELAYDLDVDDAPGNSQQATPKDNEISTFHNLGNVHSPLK
- Test: ELISA, GC3pep coated, antibody 0.0001 nM
Measured property: OD450 nm (OD450 nm)
Report the figure in OD450 nm without appending any unit label.

Check out these entries, answers already filled in.
F4.18.4 (antibody, human IgG1, kappa, V domains shown, human-murine chimeric antibody) VH: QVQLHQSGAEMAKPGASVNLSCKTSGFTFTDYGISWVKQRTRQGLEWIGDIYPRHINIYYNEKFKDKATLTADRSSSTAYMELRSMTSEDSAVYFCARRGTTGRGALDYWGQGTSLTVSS VL: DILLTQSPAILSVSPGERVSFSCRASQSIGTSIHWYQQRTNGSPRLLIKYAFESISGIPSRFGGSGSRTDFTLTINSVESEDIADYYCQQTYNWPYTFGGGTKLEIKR: 0.04
F1.2.14 (antibody, human IgG1, kappa, V domains shown, human-murine chimeric antibody) VH: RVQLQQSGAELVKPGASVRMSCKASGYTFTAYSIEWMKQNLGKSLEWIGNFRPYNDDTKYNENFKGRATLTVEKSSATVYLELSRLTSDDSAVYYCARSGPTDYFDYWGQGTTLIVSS VL: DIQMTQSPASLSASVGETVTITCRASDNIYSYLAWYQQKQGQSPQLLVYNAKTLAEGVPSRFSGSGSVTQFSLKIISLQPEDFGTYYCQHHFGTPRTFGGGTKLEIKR: 0.05

Query: Reported OD450 nm, binder F1.145.22 (antibody, human IgG1, kappa, V domains shown, human-murine chimeric antibody) VH: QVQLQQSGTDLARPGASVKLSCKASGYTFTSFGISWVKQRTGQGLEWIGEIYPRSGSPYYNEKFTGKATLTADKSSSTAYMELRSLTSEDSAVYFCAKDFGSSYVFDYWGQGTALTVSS VL: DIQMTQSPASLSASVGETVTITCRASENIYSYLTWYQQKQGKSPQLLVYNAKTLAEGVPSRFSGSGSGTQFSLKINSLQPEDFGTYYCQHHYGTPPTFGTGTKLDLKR : ____
Response: 0.04
